target-under-test: T1, human OX40 on cells (CHO-K1/hu OX40) (human, UniProt P43489 29-277)
T1 construct: whole, on cells; Also used here for OX40 on the HEK293/OX40/NF-kb reporter cells and on human T cells in the functional assays; also called CHO-K1/OX40; human OX40 cells
T1 sequence (looked up): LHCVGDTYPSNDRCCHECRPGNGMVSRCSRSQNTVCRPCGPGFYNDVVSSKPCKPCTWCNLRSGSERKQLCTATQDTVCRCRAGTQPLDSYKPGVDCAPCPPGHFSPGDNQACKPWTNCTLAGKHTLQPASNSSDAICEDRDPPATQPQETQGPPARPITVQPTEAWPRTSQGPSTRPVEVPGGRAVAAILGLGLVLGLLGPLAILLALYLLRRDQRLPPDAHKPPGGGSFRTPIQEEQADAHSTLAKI
method-summary: FACS, blocking of biotin-human OX40L on CHO-K1/hu OX40 cells
measured-endpoint: Maximum inhibition rate (%)
Number only, in %; omit the unit.

binder | measured-endpoint | data-value
PR002058 (antibody, human IgG1, V domains shown, no light chain; also called anti-OX40 HCAb antibody) VH: EVQLLESGGGLVQPGGSLRLSCAASGFTFSSYAMSWVRQAPGKGLEWVSAISGGSGSTFYADSVRGRFTISRDNSKNTLYLQMNSLRAEDTAVYYCADGVTGTDFDFWGQGTLVTVSS | Maximum inhibition rate (%) | 38
PR002070 (antibody, human IgG1, V domains shown, no light chain; also called anti-OX40 HCAb antibody) VH: EVQLLESGGGLVQPGGSLRLSCIASGFSFSSYAMSWVRQAPGKGLEWVSAISGRGGSTFYADSVRGRFNISRDNSKNTLYLQMNSLRVEDTAVYYCANGMTGTTDVDYWGQGTLVTVSS | Maximum inhibition rate (%) | 46

Shift focus to the following entry.
Exam item: Please report the recorded Maximum inhibition rate (%) for PR002077 (antibody, human IgG1, V domains shown, no light chain; also called anti-OX40 HCAb antibody) VH: EVQLLESGGGLVQPGGSLRLSCAASGFTFSSYAMSWVRQAPGKGLEWVSAISGRGNITFYADSVRGRFTISRDNSKNTLYLQMNSLRAEDTAVYYCANGITGTTDVDYWGQGTLVTVSS .
Marked response: 34

Hey, just so you know, these numbers are from patent US20230295324A1.
